- Assayed system: human RIP1 kinase domain (2-375) (Homo sapiens (Human))
- Method summary: biochemical
- Type: biochemical
- Experimental parameters: tight-binding apparent inhibition constant; human RIP1 kinase domain (2-375) 50 nM, 50 uM ATP, 2 hours; read-out: Ki
Observable: Ki (nM)

Take a look at these entries with their results.
>  <Compound>
CN1C(=O)[C@@H](NC(=O)c2nc3cccc(-c4cnn(C)c4)n3n2)COc2ccccc21

>  <Assayed system>
human RIP1 kinase domain (2-375) (Homo sapiens (Human))

>  <Display unit>
nM

>  <Ki>
36

$$$$
>  <Compound>
Cc1nc(C)n2c1N(C)C(=O)[C@H](NC(=O)c1ncn(Cc3c(F)cccc3F)n1)CC2

>  <Assayed system>
human RIP1 kinase domain (2-375) (Homo sapiens (Human))

>  <Display unit>
nM

>  <Ki>
130

$$$$
>  <Compound>
CN1C(=O)[C@@H](NC(=O)c2nc3n(n2)[C@H](c2ccccc2)CCC3)CCn2nccc21 (single isomer, unassigned)

>  <Assayed system>
human RIP1 kinase domain (2-375) (Homo sapiens (Human))

>  <Display unit>
nM

>  <Ki>
2100

$$$$
>  <Compound>
CN1C(=O)[C@@H](NC(=O)c2ncn(Cc3ccc(F)cc3)n2)CCn2nccc21 (racemic)

>  <Assayed system>
human RIP1 kinase domain (2-375) (Homo sapiens (Human))

>  <Display unit>
nM

>  <Ki>
28.2

$$$$
>  <Compound>
CN1C(=O)[C@H](NC(=O)c2ncn(Cc3ccccc3F)n2)CCn2ccnc21

>  <Assayed system>
human RIP1 kinase domain (2-375) (Homo sapiens (Human))

>  <Display unit>
nM

>  <Ki>
43

$$$$

[P] O=C(N[C@H]1CCc2cc(F)cc(F)c2NC1=O)c1nc2n(n1)[C@H](C(F)(F)F)CCC2 (single isomer, unassigned)
[Q] CC[C@]1(C)OCc2cnc(C(=O)N[C@H]3CCn4nc(C)cc4N(C)C3=O)nc21 (racemic)
Sorting by Ki in descending order, would P or Q appear first? In your reply, give the label of the chosen option. Q

---

- Assayed system: human RIP1 kinase domain (2-375) (Homo sapiens (Human), UniProt Q13546)
- Sequence (Q13546 2-375): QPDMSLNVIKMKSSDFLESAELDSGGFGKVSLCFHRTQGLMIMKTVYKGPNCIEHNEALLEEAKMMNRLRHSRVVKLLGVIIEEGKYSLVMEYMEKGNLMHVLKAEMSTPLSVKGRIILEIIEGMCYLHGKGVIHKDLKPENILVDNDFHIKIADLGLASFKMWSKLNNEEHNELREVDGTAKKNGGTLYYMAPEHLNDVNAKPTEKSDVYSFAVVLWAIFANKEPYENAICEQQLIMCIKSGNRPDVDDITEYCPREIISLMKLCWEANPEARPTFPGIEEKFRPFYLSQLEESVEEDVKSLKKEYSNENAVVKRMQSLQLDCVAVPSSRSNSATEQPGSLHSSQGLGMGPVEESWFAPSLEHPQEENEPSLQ
- Method summary: biochemical
- Type: biochemical
- Experimental parameters: Table 1; apparent Ki (Morrison tight-binding fit); 50 nM RIP1 kinase domain, 50 uM ATP, 2 hours incubation; read-out: RIP1 Ki
Quick list: pKi per entry.
# pKi is unitless: minus log10 of the molar concentration; print number only

>  <Compound>
Cc1cc2n(n1)CCC(NC(=O)c1ncn3ccc(C(F)(F)F)cc13)C(=O)N2C (centres unmarked)

>  <Observable>
pKi

>  <Reported>
6.27

$$$$
>  <Compound>
CN1C(=O)[C@@H](NC(=O)c2n[nH]c3ccc(Cl)cc23)COc2ccccc21

>  <Observable>
pKi

>  <Reported>
7.68

$$$$
>  <Compound>
CN1C(=O)[C@@H](NC(=O)c2n[nH]c3c2CC(c2ccccc2)OC3)COc2ccccc21 (some centres unmarked)

>  <Observable>
pKi

>  <Reported>
6.55

$$$$
>  <Compound>
Cc1cc2n(n1)CC[C@H](NC(=O)c1nnc(Cc3ccccc3)[nH]1)C(=O)N2C

>  <Observable>
pKi

>  <Reported>
7.24

$$$$
>  <Compound>
CN1C(=O)[C@@H](NC(=O)c2ncc3n2CC(C(F)(F)F)CC3)COc2ccccc21 (some centres unmarked)

>  <Observable>
pKi

>  <Reported>
6.73

$$$$
>  <Compound>
CN1C(=O)[C@@H](NC(=O)c2nnc3ccc(Cl)nn23)COc2ccccc21

>  <Observable>
pKi

>  <Reported>
5.92

$$$$

--- query ---
The recorded pKi for C[C@@H]1CCc2onc(C(=O)N[C@H]3COc4ccccc4N(C)C3=O)c2C1 is 6.66

Data origin, for the record: patent US10988459B2
